Test system: SNB-19 CNS
Assay: NCI-60 one-dose screen, 48 h (100 = growth as untreated, 0 = no growth, -100 = all killed)
Details: 10 µM unless noted
This is part of a sample that, as a whole, favours compounds with a hit. Of some 83,000 tested, about 20% had one in any assay.
Give measured growth for each item. Keep answers brief.
Numbers only, in %.

* COC(=O)c1n[nH]c2ccc3nc(-c4cn[nH]c4C(F)(F)F)c4c(c3c12)CCCC4 | 68.7
* CCOC(=O)c1cn2ncnc(Oc3ccc(NC(=O)NC4CCCCC4)c(Cl)c3)c2c1C | 66.1
* CCc1nc2c(=O)[nH]cnc2o1 | 112

Each molecule below has a reported value. Please supply its growth.
1. COc1cc(OC)c2sc(-c3ccc(-n4cncc4-c4ccc(OC)c(OC)c4)cc3)nc2c1
2. Cc1ccc(-c2nc3nc(-c4ccccc4)nc(N4CCNCC4)c3o2)cc1
3. CC(C)N1CCN(Cc2ccc3c(NNC(=O)c4ccccc4)nc4cc(F)ccc4n23)CC1
4. C#Cc1cccc(Nc2ncnc3ccc(-c4cncc(NS(C)(=O)=O)c4)cc23)c1
5. N#C/C(=C/c1ccc([N+](=O)[O-])cc1)n1nnc2cc(F)c(F)cc21

output:
67.1
-80.6
29.7
35.2
73.7

Batch request: growth for each of the following molecules.
1. COc1ccc2c(c1)c(-c1noc(C(=O)c3cn(C)c4ccc(Br)cc34)n1)cn2C
2. O=C1c2cccc3cccc(c23)C(=O)N1N1C(=O)c2cccc3c(N4CCOCC4)ccc(c23)C1=O

output:
102
87.8

###

System: NCI/ADR-RES ovarian
Experiment: NCI-60 one-dose screen, 48 h (100 = growth as untreated, 0 = no growth, -100 = all killed)
Conditions: 10 µM unless noted
This is part of a sample that, as a whole, favours compounds with a hit. Of some 83,000 tested, about 20% had one in any assay.
measured-property: growth (%)
Give bare numbers, in %.

- C#CCOc1ccc2ncnc(Nc3ccc(NC(=O)CCl)cc3)c2c1: 7.93

Give growth for each of the items listed below.
1. Fc1ccc2[nH]cc(-c3nonc3-c3c[nH]c4ccc(Br)cc34)c2c1
2. O=C1/C(=C/c2ccc(F)cc2)COc2ccc(O)cc21
3. C=C(C)[C@@H]1CC[C@]2(C(=O)NCCNCCN)CC[C@]3(C)[C@H](CC[C@@H]4[C@@]5(C)C/C(=C/c6ccncc6)C(=O)C(C)(C)[C@@H]5CC[C@]43C)[C@@H]12
4. Cc1cccc(Cl)c1NC(=O)c1ccc2nc(NC(=O)NCCN(C)C)sc2c1
5. N#Cc1nc(-c2ccccc2)oc1S(=O)(=O)N1CCOCC1

output:
1: 23; 2: 93.2; 3: 101; 4: 118; 5: 98.7

Please state, for each entry, its recorded growth.
1. O=C(Nc1cccnc1Nc1ccc(F)cc1)c1cn(Cc2cccc(Oc3ccccc3)c2)nn1
2. N#C/C(=C\c1ccc(Br)cc1)n1nnc2ccc(F)cc21
3. CSc1nc2sc3c(c2c(=O)n1-c1ccc([N+](=O)[O-])cc1)CCCCC3
4. N=C(N)c1ccc(-c2ccc(-c3ccc(Cl)cc3)s2)nc1
5. COc1ccc(-c2csc(NC(=O)CSc3nc(-c4ccccc4)cc(=O)[nH]3)n2)cc1
6. CCCCN[C@H]1CC[C@@]2(C)[C@@H](CC[C@@]3(C)[C@H]2[C@H](O)C[C@H]2/C(=C(\CCC=C(C)C)C(=O)OC)[C@@H](OC(C)=O)C[C@@]23C)[C@@H]1C
7. CN1C(=O)/C(=C/c2cn(-c3ccccc3)nc2-c2ccccc2)SC1=S
8. COc1ccc(C(=S)N2CCN(c3ccccc3Cl)CC2)cc1OC

output:
1: 37.8; 2: 1.62; 3: 89.6; 4: 67.4; 5: 51.3; 6: 100; 7: 98.1; 8: 108

# map each compound to its growth
1. COc1ccc2c(O)c(/C=C3\N=Nc4ccccc43)oc2c1C[C@@H]1CCNC[C@H]1F
2. O=C1Nc2ccccc2/C1=C\c1nc(-c2ccccc2)n2ccccc12
3. CC1(C)CC[C@]2(c3nnc(-c4ccncc4)o3)CC[C@H]3C(=CC[C@H]4[C@@]3(C)CC[C@H]3C(C)(C)C(=O)CC[C@]43C)[C@@H]2C1
4. CCCCCCCCCCCCCCCCCCOc1ccccc1CC(=O)NCC[N+]1(C)CCCC1
5. N#Cc1cccc(-c2c(-c3ccc4ccccc4c3)oc3ccccc3c2=O)c1

output:
[72.1, 93.9, 82, 103, 27.2]
